Study system: Cytochrome P450 3A4 (Homo sapiens) (UniProt P08684)
Sequence (P08684 whole entry, looked up): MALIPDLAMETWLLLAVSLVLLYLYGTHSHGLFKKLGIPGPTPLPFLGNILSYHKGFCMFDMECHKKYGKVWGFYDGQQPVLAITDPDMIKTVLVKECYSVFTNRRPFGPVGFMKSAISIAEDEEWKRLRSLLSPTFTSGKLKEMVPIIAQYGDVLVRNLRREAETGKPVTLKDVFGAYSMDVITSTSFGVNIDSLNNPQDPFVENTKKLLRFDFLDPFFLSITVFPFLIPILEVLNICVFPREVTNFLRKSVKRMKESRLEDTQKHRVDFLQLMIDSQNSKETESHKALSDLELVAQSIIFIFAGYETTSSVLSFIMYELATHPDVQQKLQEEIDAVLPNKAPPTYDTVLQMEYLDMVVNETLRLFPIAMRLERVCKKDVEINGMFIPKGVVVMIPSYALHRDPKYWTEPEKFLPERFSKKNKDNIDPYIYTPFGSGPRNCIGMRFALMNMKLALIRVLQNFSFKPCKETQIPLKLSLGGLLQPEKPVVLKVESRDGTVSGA
Measurement notes: qHTS Assay for Inhibitors and Substrates of Cytochrome P450 3A4 (AID 884); further: nearly all actives have a fitted effect of over 50% in size
Conditions: recombinant CYP3A4, Luciferin-PPXE luminescence; series mostly up to 57.1 µM
Inconclusive results are not listed. Active and inactive are the calls of the source. The call rests on the fitted dose curve; in most records, active means well fitted inhibition curve with a large enough effect; inconclusive means small, poorly fitted or top-dose-only effect; inactive means no such curve, though single readings can be large or run the other way.
# output must be one of class 1 for active, class 0 for inactive

Nc1nc2c(c(=O)[nH]1)N(C=O)C(CNc1ccc(C(=O)NC(CCC(=O)O)C(=O)O)cc1)CN2 (stereo unspecified) : class 0
COc1c(C(C)C)oc2cc3oc(=O)ccc3cc12 : class 0
NCCC(O)C(=O)NC1C[C@@H](N)[C@H](O[C@@H]2OC(CN)C(O)C(O)C2O)C(O)[C@H]1O[C@H]1OC(CO)C(O)C(N)C1O (stereo partly specified) : class 0
CC(=O)Oc1ccc2c(c1)CCC1C2CC[C@]2(C)C(=O)CCC12 (stereo partly specified) : class 0
CC(=O)Oc1c(C)cccc1C(=O)O : class 0

Input line: Please share the test call associated with O=C(O)C1CC(C2CCCCN2)CN2CCCCC12 (stereo unspecified) .
Output line: class 0

Input line: And COc1ccc(-c2oc3ccccc3c(=O)c2O)cc1OC ?
Output line: class 1

Input line: And c1ccc2c(c1)CN1CCCC1=N2 ?
Output line: class 0

Input line: And Cc1cn(C2CCC(CO)O2)c(=O)[nH]c1=O (stereo unspecified) ?
Output line: class 0

Input line: And COc1ccc(C2CC(=O)c3c(O)cc(O)cc3O2)cc1O (stereo unspecified) ?
Output line: class 1

Input line: And CC1CCC2(OC1)OC1CC3C4CCC5CC(O)CCC5(C)C4=CCC3(C)C1C2C (stereo unspecified) ?
Output line: class 0

----------
Study system: Rap guanine nucleotide exchange factor 4 (Homo sapiens) (UniProt Q8WZA2)
Sequence (Q8WZA2 whole entry, looked up): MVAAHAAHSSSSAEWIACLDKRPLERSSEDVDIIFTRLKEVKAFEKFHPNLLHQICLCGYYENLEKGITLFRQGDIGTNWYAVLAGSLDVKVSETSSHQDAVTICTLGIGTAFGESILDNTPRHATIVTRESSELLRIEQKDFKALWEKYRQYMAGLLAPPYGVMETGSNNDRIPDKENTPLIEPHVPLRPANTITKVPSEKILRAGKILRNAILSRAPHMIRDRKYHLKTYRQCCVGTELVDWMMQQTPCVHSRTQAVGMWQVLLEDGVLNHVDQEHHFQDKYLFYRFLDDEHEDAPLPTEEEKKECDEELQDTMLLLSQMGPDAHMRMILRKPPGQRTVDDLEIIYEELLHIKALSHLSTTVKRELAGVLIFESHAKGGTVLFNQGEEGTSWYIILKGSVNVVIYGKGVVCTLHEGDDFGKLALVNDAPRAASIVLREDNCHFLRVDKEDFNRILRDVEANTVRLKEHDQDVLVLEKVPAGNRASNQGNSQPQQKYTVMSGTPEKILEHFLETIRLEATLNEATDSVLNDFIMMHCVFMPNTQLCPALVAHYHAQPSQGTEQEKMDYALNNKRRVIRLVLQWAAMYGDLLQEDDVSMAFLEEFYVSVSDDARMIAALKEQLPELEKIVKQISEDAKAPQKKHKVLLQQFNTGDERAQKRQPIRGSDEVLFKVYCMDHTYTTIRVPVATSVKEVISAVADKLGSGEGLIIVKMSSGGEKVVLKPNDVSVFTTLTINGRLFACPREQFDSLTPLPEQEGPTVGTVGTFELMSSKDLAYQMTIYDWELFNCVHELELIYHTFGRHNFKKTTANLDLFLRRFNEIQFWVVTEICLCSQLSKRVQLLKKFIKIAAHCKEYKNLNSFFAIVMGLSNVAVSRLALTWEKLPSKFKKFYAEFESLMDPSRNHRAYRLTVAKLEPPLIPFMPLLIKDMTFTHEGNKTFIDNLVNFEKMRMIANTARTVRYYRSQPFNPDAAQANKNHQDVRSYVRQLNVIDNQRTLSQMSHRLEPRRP
Measurement notes: Confirmatory qHTS for antagonist of cAMP-regulated guanine nucleotide exchange factor 4 (EPAC2) (AID 1645885); further: nearly all actives have a fitted effect of over 25% in size
Conditions: EPAC2 Rap1B-BODIPY-GDP exchange fluorescence, biochemical; series mostly up to 12.7 µM
Results filed as inconclusive are left out. Active and inactive are the calls of the source. Calls come from the whole dose curve; as a rule, active = well fitted inhibition curve with a large enough effect; inconclusive = small, poorly fitted or top-dose-only effect; inactive = no such curve, though single readings can be large or run the other way.
Readout: outcome

Below are worked cases with known answers.
CC(C)CS(=O)(=O)C1=NN2C(=N)/C(=C\c3ccc(OC(=O)c4ccco4)cc3)C(=O)N=C2S1 : inactive
COc1ccc(Cl)cc1NC(=O)CN(C)C(=O)c1cc2c(s1)CCC(C)C2 (configuration not stated) : inactive
CN1CCN(C2=C(Cl)C(=O)c3ccccc3C2=O)CC1 : inactive
O=C(N/N=C/c1c(O)n(-c2ccccc2Cl)c(=O)c2ccccc12)c1cccnc1 : inactive
COc1cc(NC(=S)NCCC(c2ccccc2)c2ccccc2)cc(OC)c1 : inactive

Input line: Sample Cc1cc(C)c(NC(=O)Cn2c(=O)n(Cc3ccc(C(=O)NCc4ccco4)cc3)c(=O)c3sccc32)c(C)c1 — what was its outcome?
Output line: inactive

Input line: And CC1CCC2=NN(C(=O)c3ccco3)C(O)(C(F)(F)F)C2C1 (configuration not stated) ?
Output line: inactive

Input line: And Cc1ccc(C(=O)OCC(=O)Nc2sccc2C(N)=O)cc1NC(=O)c1ccco1 ?
Output line: inactive

Input line: And CC1(C(=O)NS(=O)(=O)c2ccc(Cl)s2)CCN1C(=O)c1ccc(C2CCCCC2)cc1 (configuration not stated) ?
Output line: inactive

Input line: And COc1ccc(NC(=O)CS(=O)(=O)Cc2ccccc2)c([N+](=O)[O-])c1 ?
Output line: inactive

----------
Tested on: CP262
Measurement notes: qHTS profiling for inhibitors of Plasmodium falciparum proliferation (AID 504749); further: nearly all actives have a fitted effect of over 60% in size
Conditions: P. falciparum in erythrocytes, SYBR Green DNA, 72 h; series mostly up to 12.8 µM
Results filed as inconclusive are left out. Calls of active or inactive are those of the source. The call rests on the fitted dose curve; in most records, active means well fitted inhibition curve with a large enough effect; inconclusive means small, poorly fitted or top-dose-only effect; inactive means flat fitted curve, though single readings scatter.
# output must be one of 1 (active), -1 (inactive)

Worked examples follow.
C[C@H](O)Cn1cnc2c1c(=O)n(C)c(=O)n2C : -1
CO[C@H]1[C@@H](OC(N)=O)[C@H](O)[C@@H](Oc2ccc3c(O)c(NC(=O)c4ccc(O)c(CC=C(C)C)c4)c(=O)oc3c2C)OC1(C)C : -1
CCN[C@@H]1CN(CCCOC)S(=O)(=O)c2sc(S(N)(=O)=O)cc21 : -1
CO[C@]1(NC(=O)C2SC(=C(C(N)=O)C(=O)O)S2)C(=O)N2C(C(=O)O)=C(CSc3nnnn3C)CS[C@H]21 (stereo not given in full) : -1
CN[C@H]1[C@H](O)[C@@H](O[C@@H]2[C@H](O)[C@@H](O[C@H]3OC(CN)=CC[C@H]3N)[C@@H](N)C[C@H]2N)OC[C@@]1(C)O : -1

Input line: Please share the test call associated with COc1ccc([C@@H]2CC(=O)c3c(O)cc(O[C@H]4O[C@@H](CO[C@H]5O[C@@H](C)[C@@H](O)[C@@H](O)[C@@H]5O)[C@@H](O)[C@@H](O)[C@@H]4O)cc3O2)cc1O .
Output line: -1

Input line: And CC[C@H](Cc1c(I)cc(I)c(N)c1I)C(=O)O ?
Output line: -1

Input line: And C=Cc1c(C)/c2[n-]/c1=C\c1[n-]c(c(CC)c1C)/C=c1\[n-]c3c(c1C)C(=O)C(C(=O)[O-])C=3c1[n-]c(c(C)c1CCC(=O)[O-])\C=2.[Cu].[Na+].[Na+] (stereo not given) ?
Output line: -1

Input line: And COc1cc(N[C@@H](C)CCCN)c2ncccc2c1 ?
Output line: 1

Input line: And CCc1c(C)[nH]c2c1C(=O)[C@H](CN1CCOCC1)CC2 ?
Output line: -1

Input line: And CCN[C@@H]1C[C@H](N)[C@H](O[C@H]2OC(CN)=CC[C@H]2N)[C@@H](O)[C@H]1O[C@H]1OC[C@@](C)(O)[C@@H](NC)[C@@H]1O ?
Output line: -1

Input line: And COc1ccccc1OC[C@H](O)CO ?
Output line: -1

Input line: And NS(=O)(=O)c1cc2c(cc1C(F)(F)F)N[C@H](Cc1ccccc1)NS2(=O)=O ?
Output line: -1

Input line: And O=C1O[C@@H]([C@@H](O)CO)[C@@H](O)[C@H]1O ?
Output line: -1

Input line: And CC(C)(C)NC[C@H](O)COc1cccc2c1CCC(=O)N2 ?
Output line: -1

Input line: And Cc1cccc(CN2CCN([C@@H](c3ccccc3)c3ccc(Cl)cc3)CC2)c1 ?
Output line: -1

Input line: And CC(=O)OCC(=O)[C@@]1(O)CC[C@@H]2[C@H]3CCC4=CC(=O)C=C[C@]4(C)[C@]3(F)[C@@H](O)C[C@@]21C ?
Output line: -1

Input line: And O=C1O[C@H](CN2CCOCC2)CN1/N=C\c1ccc([N+](=O)[O-])o1 ?
Output line: -1

Input line: And CCC(C)C(=O)OC1CC(O)C=C2C=CC(C)C(CCC(O)CC(O)CC(=O)O)C21 (stereo not given) ?
Output line: -1

----------
Test system: PAD
Measurement notes: qHTS profiling for inhibitors of Plasmodium falciparum proliferation (AID 504749); further: nearly all actives have a fitted effect of over 60% in size
Conditions: P. falciparum in erythrocytes, SYBR Green DNA, 72 h; series mostly up to 12.8 µM
Inconclusive results are not listed. Active and inactive are the calls of the source. Calls follow the shape of the dose curve; as a rule, active = well fitted inhibition curve with a large enough effect; inconclusive = small, poorly fitted or top-dose-only effect; inactive = flat fitted curve, though single readings scatter.
# output must be one of 1 for active, -1 for inactive

Cc1ccsc1/C=C\C1=NCCCN1C : -1
CC(=O)N(C[C@@H](C)C(=O)O)c1c(I)cc(I)c(N)c1I : -1
CN1CCC[C@@H](CC2c3ccccc3Sc3ccccc32)C1 : -1

Please find the next compound below.
Input line: Please share the test call associated with CC1C2CCC3C4CC=C5CC(N(C)C)CC[C@@]5(C)C4CC[C@@]32CN1C (some centres undefined) .
Output line: -1

----------
Study system: Rap guanine nucleotide exchange factor 4 (Homo sapiens) (UniProt Q8WZA2)
Measurement notes: Confirmatory qHTS for antagonist of cAMP-regulated guanine nucleotide exchange factor 4 (EPAC2) (AID 1645885); further: nearly all actives have a fitted effect of over 25% in size
Conditions: EPAC2 Rap1B-BODIPY-GDP exchange fluorescence, biochemical; series mostly up to 12.7 µM
Inconclusive results are not listed. The source made the active and inactive calls. Calls come from the whole dose curve; as a rule, active = well fitted inhibition curve with a large enough effect; inconclusive = small, poorly fitted or top-dose-only effect; inactive = no such curve, though single readings can be large or run the other way.
# output must be one of 1.0 for active, 0.0 for inactive

Worked examples follow.
CCOc1ccc(NC(=O)CN(C)C(=O)c2cc3c(s2)CCC3)cc1OCC : 0.0
CCCCn1c(CN2CCOCC2)nc2c1c(=O)n(C)c(=O)n2C : 0.0
CCC(=O)OCCCNc1nc(-c2ccc(Cl)cc2)nc2ccccc12 : 0.0

Input line: Please share the test call associated with COc1ccc(C2=CC(=O)C[C@H](COCc3ccccc3)N(C(=O)OC(C)(C)C)O2)cc1 .
Output line: 0.0

Input line: And Cc1ccc2nc(-c3ccc(Cl)cc3)c(Cc3ccccc3C(F)(F)F)n2c1 ?
Output line: 0.0

Input line: And CN(C)C(=O)CCc1ccc2c3c([nH]c2c1)[C@]1(C)[C@@H](C(=O)N2CCCCC2)C[C@H](CC(=O)NCCc2ccccn2)C(=O)N1CC3 ?
Output line: 0.0

Input line: And COc1ccc([N+](=O)[O-])cc1NC(=S)Nc1ccccc1 ?
Output line: 0.0

Input line: And Cc1cc(OC(C)C(=O)NCCc2c[nH]c3ccccc23)c2c(C)cc(=O)oc2c1 (stereo unspecified) ?
Output line: 0.0

Input line: And CCOc1cc(/C=N/Nc2nc(-c3cccs3)c(NC(C)=O)s2)ccc1O ?
Output line: 0.0

Input line: And COc1cc(/C=C2/C(=O)NN(c3ccc(C)c(Cl)c3)C2=O)cc([N+](=O)[O-])c1O ?
Output line: 0.0

Input line: And CCN(CC)c1ccc2oc(=O)c(C)nc2c1 ?
Output line: 1.0

Input line: And Cc1cc(C)c(C(=O)c2cccs2)c(C)c1 ?
Output line: 0.0

Input line: And CC(=O)N1CCc2cc(Br)cc(S(=O)(=O)NCCCN(C)Cc3ccccc3)c21 ?
Output line: 1.0

Input line: And O=C(COC(=O)c1c2c(nc3ccccc13)/C(=C/c1ccco1)CC2)NC1CCCC1 ?
Output line: 0.0

Input line: And CC(C)(C)n1cnc2cc(NCc3ccccc3Cl)ccc21 ?
Output line: 0.0
